# TARGET_SYSTEM: Amine oxidase [flavin-containing] B (Homo sapiens, UniProt P27338)
# TEST_PROTOCOL: biochemical
# Description: Inhibition of recombinant human MAO-B expressed in baculovirus infected BTI-TN-5B1-4 insect cells using p-tyramine as substrate preincubated for 15 mins followed by substrate addition and measured over 20 mins by horse-radish peroxidase/Amplex Red coupled fluorimetric analysis
EXPERIMENTAL_READOUT: pIC50
Numbers only, as −log10 of the molar value.

Some entries whose results are on file:
c1cnc2c(c1)nn1cc(-c3ccsc3)cnc21
4.83
FC(F)(F)c1ccc2c(c1)nn1cc(Br)cnc21
5.93
COc1ccc(-c2cnc3c4ncccc4nn3c2)cc1
6.63
COc1ccccc1-c1cnc2c3cccnc3nn2c1
5.42
CSc1ccc(-c2cnc3c4ccccc4nn3c2)cc1
7.19

Your task in this section: give pIC50 for each listed record.
1. COc1cccc(-c2cnc3c4cccnc4nn3c2)c1
2. COc1ccc(-c2cnc3c4c(Cl)cccc4nn3c2)cc1
3. COc1ccc(-c2cnc3c4ccccc4nn3c2)cc1
4. COc1ccc(-c2cnc3c4cccnc4nn3c2)cc1
5. c1csc(-c2cnc3c4cccnc4nn3c2)c1
6. COc1ccc(-c2cnc3c4nccnc4nn3c2)cc1
7. c1ccc(-c2cnc3c4ncccc4nn3c2)cc1

Result:
1. 6.40
2. 6.88
3. 6.67
4. 6.09
5. 5.35
6. 5.90
7. 4.05

Your task in this section: give pIC50 for each listed record.
1. FC(F)(F)c1cccc(-c2cnc3c4cccnc4nn3c2)c1
2. CCOC(=O)c1ccc(-c2cnc3c4cccnc4nn3c2)cc1
3. CS(=O)(=O)c1ccc(-c2cnc3c4cccnc4nn3c2)cc1
4. CC(=O)c1ccc(-c2cnc3c4cccnc4nn3c2)cc1
5. C(=C\c1cnc2c3cccnc3nn2c1)/c1ccccc1

Result:
5.99
6.09
5.24
6.89
6.08

---

Consider the following compounds; for each one, report its Ki.
# TARGET_SYSTEM: Amine oxidase [flavin-containing] B (Homo sapiens)
# Sequence (P27338 whole entry): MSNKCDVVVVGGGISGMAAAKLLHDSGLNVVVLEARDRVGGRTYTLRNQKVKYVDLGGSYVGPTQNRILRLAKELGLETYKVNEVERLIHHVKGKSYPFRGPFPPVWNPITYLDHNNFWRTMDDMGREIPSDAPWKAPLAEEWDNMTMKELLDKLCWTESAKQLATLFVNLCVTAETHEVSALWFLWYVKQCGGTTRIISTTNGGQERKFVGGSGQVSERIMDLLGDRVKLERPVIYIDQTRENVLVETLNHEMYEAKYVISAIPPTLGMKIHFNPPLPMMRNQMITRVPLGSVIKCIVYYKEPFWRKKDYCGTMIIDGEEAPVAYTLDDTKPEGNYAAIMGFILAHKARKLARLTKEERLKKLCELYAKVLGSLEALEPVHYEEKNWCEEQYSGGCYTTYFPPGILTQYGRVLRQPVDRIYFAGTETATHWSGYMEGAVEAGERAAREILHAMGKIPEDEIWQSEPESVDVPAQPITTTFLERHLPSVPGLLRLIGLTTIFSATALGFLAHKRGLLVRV
# TEST_PROTOCOL: Competitive inhibition of recombinant human MAO-B expressed in baculovirus infected BTI-TN-5B1-4 insect cells using varying level of p-tyramine as substrate by Lineweaver-Burk plot analysis
Answers are plain numbers, in nM.

Your task in this section: give Ki for each listed record.
1. CSc1ccc(-c2cnc3c4ccccc4nn3c2)cc1
2. CC(=O)c1ccc(-c2cnc3c4cccnc4nn3c2)cc1
3. COc1ccc(-c2cnc3c4c(F)cccc4nn3c2)cc1
4. COc1ccc(-c2cnc3c4ncccc4nn3c2)cc1

Result:
24.7
76.5
33.7
107

---

# TARGET_SYSTEM: Amine oxidase [flavin-containing] B (Homo sapiens)
# TEST_PROTOCOL: biochemical
Consider the following molecules; for each one, report its pIC50.
Numbers only, as −log10 of the molar value.

COc1ccc(-c2cnc3c4c(F)cccc4nn3c2)cc1
7.21

Next:
Task: Quote pIC50 reported for Fc1ncccc1-c1cnc2c3ccccc3nn2c1 please.
Result: 6.19

---

# TEST_PROTOCOL: Cytotoxicity against human SH-SY5Y cells assessed as metabolic activity up to 100 uM incubated for 24 hrs by MTS assay relative to control
# Assay type: ADME, cell-based
# CONDITION_LABEL: read-out: Activity
EXPERIMENTAL_READOUT: viability at 24 h

Some entries whose results are on file:
CSc1ccc(-c2cnc3c4ccccc4nn3c2)cc1
> 85%
COc1ccc(-c2cnc3c4c(F)cccc4nn3c2)cc1
> 85%

Next:
Task: Quote viability at 24 h reported for CC(=O)c1ccc(-c2cnc3c4cccnc4nn3c2)cc1 please.
Result: > 85%

---

Consider the following compounds; for each one, report its IC50.
# TARGET_SYSTEM: Amine oxidase [flavin-containing] A (Homo sapiens)
# Sequence (P21397 whole entry): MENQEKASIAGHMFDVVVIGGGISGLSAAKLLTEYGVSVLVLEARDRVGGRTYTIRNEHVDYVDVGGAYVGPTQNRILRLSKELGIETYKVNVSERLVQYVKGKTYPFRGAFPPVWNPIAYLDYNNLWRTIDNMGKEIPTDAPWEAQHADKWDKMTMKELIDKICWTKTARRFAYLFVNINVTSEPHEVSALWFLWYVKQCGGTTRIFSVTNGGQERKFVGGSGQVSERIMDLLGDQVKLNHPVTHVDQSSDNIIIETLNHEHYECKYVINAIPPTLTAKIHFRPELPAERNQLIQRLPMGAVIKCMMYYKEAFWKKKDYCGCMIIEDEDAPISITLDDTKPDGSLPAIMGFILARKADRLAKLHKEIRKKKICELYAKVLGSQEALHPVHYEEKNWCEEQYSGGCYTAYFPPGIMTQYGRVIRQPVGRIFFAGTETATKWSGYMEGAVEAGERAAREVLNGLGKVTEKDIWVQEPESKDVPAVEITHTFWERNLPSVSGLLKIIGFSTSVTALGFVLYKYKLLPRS
# TEST_PROTOCOL: Inhibition of recombinant human MAO-A expressed in baculovirus infected BTI-TN-5B1-4 insect cells using p-tyramine as substrate preincubated for 15 mins followed by substrate addition and measured over 20 mins by horse-radish peroxidase/Amplex Red coupled fluorimetric analysis

CSc1ccc(-c2cnc3c4ccccc4nn3c2)cc1
> 100 µM

Your task in this section: give IC50 for each listed record.
1. c1ccc(-c2cnc3c4ncccc4nn3c2)cc1
2. c1cnc2c(c1)nn1cc(-c3ccsc3)cnc21
3. Brc1cnc2c3nccnc3nn2c1

Result:
> 100 µM
> 100 µM
> 100 µM
